Reference for the values: PubChem BioAssay AID1963846

System: 454973-116-R2-J3-PDC complex spheroid viability
Assay: Anticancer human tumor 454973-116-R2-J3-PDC patient-derived pancreatic carcinoma cell line growth inhibition [POLQ]
Conditions: second compound 3.16 µM; first compound 0.1 µM; stronger effect = lower value
Experimental: Multicellular complex tumor spheroid response to Polymerase (POL) inhibitors (novobiocin, ART-558, RP6685) in combination with a variety of drugs and investigational agents in selected tumor cell lines The POL inhibitors (novobiocin, ART-558, and RP6685) were evaluated both individually and in combination with standard of care and investigational anticancer small molecules within a complex spheroid model of solid tumors. . […]

- COMPOUND: "COc1cc2cc(C(=O)CCC(=O)O)sc2cc1OC + Cc1cccc(N(C)C(=O)C2C(O)CCN2c2nc(C)cc(C(F)(F)F)c2C#N)c1"
  viability, T/C [%]: 97.9
- COMPOUND: "CC(C)n1c(=O)n(C)c2cnc3cc(F)c(-c4ccc(OCCCN5CCCCC5)nc4)cc3c21 + COC1C(OC(N)=O)C(O)C(Oc2ccc3c(O)c(NC(=O)c4ccc(O)c(CC=C(C)C)c4)c(=O)oc3c2C)OC1(C)C"
  viability, T/C [%]: 107
- COMPOUND: "Cn1ncnc1[C@H]1c2n[nH]c(=O)c3cc(F)cc(c23)N[C@@H]1c1ccc(F)cc1 + COC1C(OC(N)=O)C(O)C(Oc2ccc3c(O)c(NC(=O)c4ccc(O)c(CC=C(C)C)c4)c(=O)oc3c2C)OC1(C)C"
  viability, T/C [%]: 88.9
- COMPOUND: "C=CCn1c(=O)c2cnc(Nc3ccc(N4CCN(C)CC4)cc3)nc2n1-c1cccc(C(C)(C)O)n1 + COC1C(OC(N)=O)C(O)C(Oc2ccc3c(O)c(NC(=O)c4ccc(O)c(CC=C(C)C)c4)c(=O)oc3c2C)OC1(C)C"
  viability, T/C [%]: 110
- COMPOUND: "CCc1cc2c(N3CCc4c(cc(Cn5ccnc5)cc4-c4cn(C)nc4C(F)(F)F)C3=O)ccnc2c(OC)n1 + Cc1cccc(N(C)C(=O)C2C(O)CCN2c2nc(C)cc(C(F)(F)F)c2C#N)c1"
  viability, T/C [%]: 97.8

====

We begin with a simple list: items and their reported viability, T/C.
system: 454973-116-R2-J3-PDC complex spheroid viability; test: Anticancer human tumor 454973-116-R2-J3-PDC cell line growth inhibition [POLQ]; conditions: second compound 3.16 µM; first compound 3.16 µM; stronger effect = lower value;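 also: spheroids exposed to drugs for seven days before measurement; percent viability relative to DMSO vehicle control wells taken as 100%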

- COMPOUND: "CC(C)n1c(=O)n(C)c2cnc3cc(F)c(-c4ccc(OCCCN5CCCCC5)nc4)cc3c21 + Cc1cccc(N(C)C(=O)C2C(O)CCN2c2nc(C)cc(C(F)(F)F)c2C#N)c1"
  viability, T/C [%]: 101
- COMPOUND: "O=c1[nH]cc(F)c(=O)[nH]1 + Nc1ccc(C#CCN(C(=O)Cc2ncc(C(F)(F)F)cc2C(F)(F)F)c2ccc(F)cc2)nn1"
  viability, T/C [%]: 25.4
- COMPOUND: "CNCc1ccc(-c2[nH]c3cc(F)cc4c3c2CCNC4=O)cc1 + COC1C(OC(N)=O)C(O)C(Oc2ccc3c(O)c(NC(=O)c4ccc(O)c(CC=C(C)C)c4)c(=O)oc3c2C)OC1(C)C"
  viability, T/C [%]: 99.3
- COMPOUND: "C=CC(=O)N1CCN(c2nc(=O)n(-c3c(C)ccnc3C(C)C)c3nc(-c4c(O)cccc4F)c(F)cc23)C(C)C1 (stereo not given) + COC1C(OC(N)=O)C(O)C(Oc2ccc3c(O)c(NC(=O)c4ccc(O)c(CC=C(C)C)c4)c(=O)oc3c2C)OC1(C)C"
  viability, T/C [%]: 111
- COMPOUND: "CCCS(=O)(=O)Nc1ccc(F)c(C(=O)c2c[nH]c3ncc(-c4ccc(Cl)cc4)cc23)c1F + COC1C(OC(N)=O)C(O)C(Oc2ccc3c(O)c(NC(=O)c4ccc(O)c(CC=C(C)C)c4)c(=O)oc3c2C)OC1(C)C"
  viability, T/C [%]: 105

====

tested on: 454973-116-R2-J3-PDC complex spheroid viability; assay: Anticancer human tumor 454973-116-R2-J3-PDC cell line growth inhibition [POLQ]; conditions: second compound 0.0316 µM; first compound 0.000316 µM; stronger effect = lower value;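 also: spheroids exposed to drugs for seven days before measurement; percent viability relative to DMSO vehicle control wells taken as 100%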
We begin with a simple list: items and their reported viability, T/C.
QUANTITY NAME: viability, T/C (%)

- COMPOUND: "Cn1ncnc1[C@H]1c2n[nH]c(=O)c3cc(F)cc(c23)N[C@@H]1c1ccc(F)cc1 + COC1C(OC(N)=O)C(O)C(Oc2ccc3c(O)c(NC(=O)c4ccc(O)c(CC=C(C)C)c4)c(=O)oc3c2C)OC1(C)C"
  EXPERIMENTAL RESULT: 100
- COMPOUND: "Cn1ncnc1[C@H]1c2n[nH]c(=O)c3cc(F)cc(c23)N[C@@H]1c1ccc(F)cc1 + Nc1ccc(C#CCN(C(=O)Cc2ncc(C(F)(F)F)cc2C(F)(F)F)c2ccc(F)cc2)nn1"
  EXPERIMENTAL RESULT: 107
- COMPOUND: "CC[C@@]1(O)C(=O)OCc2c1cc1n(c2=O)Cc2cc3c(CN(C)C)c(O)ccc3nc2-1 + Cc1cccc(N(C)C(=O)C2C(O)CCN2c2nc(C)cc(C(F)(F)F)c2C#N)c1"
  EXPERIMENTAL RESULT: 92.2
- COMPOUND: "CC[C@@]1(O)C(=O)OCc2c1cc1n(c2=O)Cc2cc3c(CN(C)C)c(O)ccc3nc2-1 + COC1C(OC(N)=O)C(O)C(Oc2ccc3c(O)c(NC(=O)c4ccc(O)c(CC=C(C)C)c4)c(=O)oc3c2C)OC1(C)C"
  EXPERIMENTAL RESULT: 113
- COMPOUND: "Cn1ncnc1[C@H]1c2n[nH]c(=O)c3cc(F)cc(c23)N[C@@H]1c1ccc(F)cc1 + Cc1cccc(N(C)C(=O)C2C(O)CCN2c2nc(C)cc(C(F)(F)F)c2C#N)c1"
  EXPERIMENTAL RESULT: 109
- COMPOUND: "CC[C@@]1(O)C(=O)OCc2c1cc1n(c2=O)Cc2cc3c(CN(C)C)c(O)ccc3nc2-1 + Nc1ccc(C#CCN(C(=O)Cc2ncc(C(F)(F)F)cc2C(F)(F)F)c2ccc(F)cc2)nn1"
  EXPERIMENTAL RESULT: 105

====

test system: 454973-116-R2-J3-PDC complex spheroid viability; experiment: Anticancer human tumor 454973-116-R2-J3-PDC cell line growth inhibition [POLQ]; details: second compound 1 µM; first compound 0.316 µM; stronger effect = lower value;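 also: spheroids exposed to drugs for seven days before measurement; percent viability relative to DMSO vehicle control wells taken as 100%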
We begin with a simple list: items and their reported viability, T/C.

- COMPOUND: "C=CCn1c(=O)c2cnc(Nc3ccc(N4CCN(C)CC4)cc3)nc2n1-c1cccc(C(C)(C)O)n1 + Nc1ccc(C#CCN(C(=O)Cc2ncc(C(F)(F)F)cc2C(F)(F)F)c2ccc(F)cc2)nn1"
  STUDY TARGET: "454973-116-R2-J3-PDC complex spheroid viability"
  viability, T/C: "62.3%"
- COMPOUND: "CCc1c2c(nc3ccc(O)cc13)-c1cc3c(c(=O)n1C2)COC(=O)[C@]3(O)CC + Nc1ccc(C#CCN(C(=O)Cc2ncc(C(F)(F)F)cc2C(F)(F)F)c2ccc(F)cc2)nn1"
  STUDY TARGET: "454973-116-R2-J3-PDC complex spheroid viability"
  viability, T/C: "1.98%"
- COMPOUND: "CCCS(=O)(=O)Nc1ccc(F)c(C(=O)c2c[nH]c3ncc(-c4ccc(Cl)cc4)cc23)c1F + Cc1cccc(N(C)C(=O)C2C(O)CCN2c2nc(C)cc(C(F)(F)F)c2C#N)c1"
  STUDY TARGET: "454973-116-R2-J3-PDC complex spheroid viability"
  viability, T/C: "114%"
- COMPOUND: "CC1COCCN1c1cc(C2(O)CC3CCC(C2)O3)c2cnn(-c3ccn[nH]3)c2n1 (stereo unspecified) + Cc1cccc(N(C)C(=O)C2C(O)CCN2c2nc(C)cc(C(F)(F)F)c2C#N)c1"
  STUDY TARGET: "454973-116-R2-J3-PDC complex spheroid viability"
  viability, T/C: "33%"
- COMPOUND: "O=c1[nH]cc(F)c(=O)[nH]1 + Nc1ccc(C#CCN(C(=O)Cc2ncc(C(F)(F)F)cc2C(F)(F)F)c2ccc(F)cc2)nn1"
  STUDY TARGET: "454973-116-R2-J3-PDC complex spheroid viability"
  viability, T/C: "109%"
- COMPOUND: "COc1cc2cc(C(=O)CCC(=O)O)sc2cc1OC + Cc1cccc(N(C)C(=O)C2C(O)CCN2c2nc(C)cc(C(F)(F)F)c2C#N)c1"
  STUDY TARGET: "454973-116-R2-J3-PDC complex spheroid viability"
  viability, T/C: "99%"
